Below are pIC50 values measured for Cytochrome P450 3A4 (Homo sapiens).
A value of pIC50 is the negative decimal logarithm of a concentration given in moles per litre.

O=S(=O)(c1cncc2ccccc12)N1CCC[C@H]1CCN1CCN(c2nsc3ccccc23)CC1; 4.64

Now for another entry.
For the record O=S(=O)(c1cncc2ccccc12)N1CCC[C@H]1CCN1CCN(c2cccc3sccc23)CC1 , what value of pIC50 is listed for Cytochrome P450 3A4 (Homo sapiens)? 5.00

====

species on record: Rattus norvegicus; test: animal or person; details: Sprague-Dawley, ip, read-out: MED
Description: Antipsychotic activity in ip dosed Sprague-Dawley rat assessed as suppression of avoidance behavior by avoiding foot shock administered 60 mins prior to test by conditioned avoidance response test
Assay Endpoint: minimal effective dose (mg/kg)
Use mg/kg as the unit, but write only the number.

Solved cases (4 shown):
O=S(=O)(c1cncc2ccccc12)N1CCC[C@H]1CCN1CCN(c2nsc3ccccc23)CC1; 3
Cc1cc2c(s1)Nc1ccccc1N=C2N1CCN(C)CC1 [OLANZAPINE]; 1
Cc1nc2n(c(=O)c1CCN1CCC(c3noc4cc(F)ccc34)CC1)CCCC2 [RISPERIDONE]; 0.1
O=C1Cc2cc(CCN3CCN(c4nsc5ccccc45)CC3)c(Cl)cc2N1 [ZIPRASIDONE]; 1

Using the record for O=S(=O)(c1cncc2ccccc12)N1CCC[C@H]1CCN1CCN(c2cccc3sccc23)CC1 , report its minimal effective dose. 3

GET /values?readout=minimal effective dose&item= CN1CCN(C2=Nc3cc(Cl)ccc3Nc3ccccc32)CC1 [CLOZAPINE] 1

For O=C(CCCN1CCC(O)(c2ccc(Cl)cc2)CC1)c1ccc(F)cc1 [HALOPERIDOL] , what is its reported minimal effective dose? 0.1

====

target: 5-hydroxytryptamine receptor 2A (Homo sapiens, UniProt P28223); test: biochemical; type: cell-based, CHO-K1
Sequence (P28223 whole entry): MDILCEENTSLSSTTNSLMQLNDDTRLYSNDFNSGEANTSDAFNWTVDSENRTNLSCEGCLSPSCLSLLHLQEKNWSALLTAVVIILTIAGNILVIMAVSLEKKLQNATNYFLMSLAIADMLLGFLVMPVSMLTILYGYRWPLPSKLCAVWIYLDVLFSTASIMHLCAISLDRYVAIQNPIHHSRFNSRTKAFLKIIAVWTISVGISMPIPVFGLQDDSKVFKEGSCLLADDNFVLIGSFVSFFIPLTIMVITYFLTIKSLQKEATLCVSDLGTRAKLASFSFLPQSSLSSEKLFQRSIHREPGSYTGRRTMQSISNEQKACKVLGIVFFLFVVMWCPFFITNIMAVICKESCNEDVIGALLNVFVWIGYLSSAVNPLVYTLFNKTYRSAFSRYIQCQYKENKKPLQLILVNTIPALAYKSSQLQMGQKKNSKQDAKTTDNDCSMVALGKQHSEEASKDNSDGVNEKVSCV
Quick reference for pKi among some compounds
When answering, recall that pKi equals minus log10 of the concentration in mol/L, and write that number alone.

O=S(=O)(c1cccc2ncccc12)N1CCC[C@H]1CCN1CC=C(c2c[nH]c3ccc(Cl)cc23)CC1; 5.85
O=c1[nH]c2c(N3CCN(CC[C@@H]4CCCN4S(=O)(=O)c4cncc5ccccc45)CC3)cccc2o1; 5.69

Return pKi measured with 5-hydroxytryptamine receptor 2A (Homo sapiens, UniProt P28223) given this compound: O=S(=O)(c1cncc2ccccc12)N1CCC[C@@H]1CCN1CCN(c2cccc3c2OCCO3)CC1 6.41

Which pKi is reported with 5-hydroxytryptamine receptor 2A (Homo sapiens, UniProt P28223) for this entry: O=S(=O)(c1cncc2ccccc12)N1CCC[C@H]1CCN1CCN(c2noc3ccccc23)CC1 ? 7.48

// fetch 5-hydroxytryptamine receptor 2A (Homo sapiens, UniProt P28223) pKi for O=S(=O)(c1cccc2cnccc12)N1CCC[C@H]1CCN1CCN(c2noc3ccccc23)CC1 7.39

// fetch 5-hydroxytryptamine receptor 2A (Homo sapiens, UniProt P28223) pKi for O=S(=O)(c1cccc2ncccc12)N1CCCC[C@@H]1CCN1CCN(c2cccc3sccc23)CC1 7.46

====

Some molecules, each annotated with its measured pKi.
target: 5-hydroxytryptamine receptor 2A (Homo sapiens, UniProt P28223); experiment: biochemical; format: cell-based, CHO-K1
# log scale: pKi equals minus log10 of the concentration in mol/L

Reference set, count: 8
O=S(=O)(c1cccc2cnccc12)N1CCC[C@@H]1CCN1CCN(c2cccc3sccc23)CC1; 7.72
O=S(=O)(c1cccc2ncccc12)N1CCC[C@H]1CCN1CCN(c2noc3ccccc23)CC1; 7.31
O=c1[nH]c2c(N3CCN(CC[C@H]4CCCN4S(=O)(=O)c4cncc5ccccc45)CC3)cccc2o1; 5.71
O=S(=O)(c1cccc2ncccc12)N1CCC[C@@H]1CCN1CC=C(c2c[nH]c3ccc(Cl)cc23)CC1; 5.94
O=S(=O)(c1ccnc2ccccc12)N1CCCCC[C@H]1CCN1CCN(c2nsc3ccccc23)CC1; 7.59
O=S(=O)(c1cccc2ncccc12)N1CCCCC[C@H]1CCN1CCN(c2cccc3sccc23)CC1; 7.29
O=S(=O)(c1cccc2ncccc12)N1CCC[C@H]1CCN1CCC(c2noc3cc(F)ccc23)CC1; 7.92
O=S(=O)(c1ccnc2ccccc12)N1CCCC[C@@H]1CCN1CCN(c2nsc3ccccc23)CC1; 7.46

Please examine the following record next.
# query: pKi of entry O=S(=O)(c1cccc2ncccc12)N1CCC[C@H]1CCN1CCN(c2cccc3c2OCCO3)CC1 6.96

====

biological target: UniProt:P05177
Sequence (P05177 whole entry): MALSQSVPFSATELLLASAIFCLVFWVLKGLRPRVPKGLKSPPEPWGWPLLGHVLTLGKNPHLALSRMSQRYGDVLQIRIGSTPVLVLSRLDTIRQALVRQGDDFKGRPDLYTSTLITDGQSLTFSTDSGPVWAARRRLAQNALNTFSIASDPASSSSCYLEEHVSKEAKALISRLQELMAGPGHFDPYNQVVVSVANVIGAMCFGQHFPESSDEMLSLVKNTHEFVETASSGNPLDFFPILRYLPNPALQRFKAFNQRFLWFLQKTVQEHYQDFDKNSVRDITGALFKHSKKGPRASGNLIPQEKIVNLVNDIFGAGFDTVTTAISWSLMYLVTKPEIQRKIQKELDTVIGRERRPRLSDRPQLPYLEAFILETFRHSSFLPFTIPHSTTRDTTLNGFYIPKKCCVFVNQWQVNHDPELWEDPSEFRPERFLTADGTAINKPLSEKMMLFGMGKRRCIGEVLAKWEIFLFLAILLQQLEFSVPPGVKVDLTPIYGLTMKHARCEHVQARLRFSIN
Assay Endpoint: IC50

O=S(=O)(c1cncc2ccccc12)N1CCC[C@H]1CCN1CCN(c2nsc3ccccc23)CC1; > 100 µM

Then there is this compound:
For O=S(=O)(c1cncc2ccccc12)N1CCC[C@H]1CCN1CCN(c2cccc3sccc23)CC1 , what is its reported IC50? > 100 µM

====

target: 5-hydroxytryptamine receptor 1A (Homo sapiens); assay: Displacement of [3H]-WAY100635 from recombinant full-length human 5-HT1AR expressed in CHO cells after 120 mins by scintillation counting method; assay type: cell-based
Assay Endpoint: Ki

Returns the measured Ki for the input compound. Input: O=S(=O)(c1cncc2ccccc12)N1CCC[C@H]1CCN1CCN(c2cccc3sccc23)CC1 18 nM

====

Target: UniProt P08908
Sequence (P08908 whole entry): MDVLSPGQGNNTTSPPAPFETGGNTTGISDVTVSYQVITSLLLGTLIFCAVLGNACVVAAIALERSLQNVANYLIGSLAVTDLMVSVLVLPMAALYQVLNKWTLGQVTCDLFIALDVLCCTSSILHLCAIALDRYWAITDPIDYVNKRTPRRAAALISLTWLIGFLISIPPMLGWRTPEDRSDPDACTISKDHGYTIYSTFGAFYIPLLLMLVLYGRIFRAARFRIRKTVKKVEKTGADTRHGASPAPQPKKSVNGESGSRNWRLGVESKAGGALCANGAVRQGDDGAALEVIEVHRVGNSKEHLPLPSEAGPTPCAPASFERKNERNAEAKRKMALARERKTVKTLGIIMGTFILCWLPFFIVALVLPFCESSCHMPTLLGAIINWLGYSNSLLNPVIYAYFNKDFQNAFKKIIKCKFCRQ
Experiment: biochemical
Description: Displacement of [3H]-8-OH-DPAT from human 5-HT1AR expressed in HEK293 cell membranes after 1 hr by microbeta counting method
Assay Endpoint: log10(Ki) (log10 of the value in nM)
Please keep in mind that the values are log10 of Ki expressed in nM.

Study these solved cases before continuing.
O=C1Cc2cc(CCN3CCN(c4nsc5ccccc45)CC3)c(Cl)cc2N1; 0.30
O=S(=O)(c1cncc2ccccc12)N1CCC[C@H]1CCN1CC=C(c2c[nH]c3ccc(Cl)cc23)CC1; 1.82
O=S(=O)(c1cncc2ccccc12)N1CCC[C@@H]1CCN1CCN(c2cccc3sccc23)CC1; 1.38
O=S(=O)(c1cncc2ccccc12)N1CCC[C@H]1CCN1CCN(c2noc3ccccc23)CC1; 1.98
O=c1[nH]c2c(N3CCN(CC[C@@H]4CCCN4S(=O)(=O)c4cncc5ccccc45)CC3)cccc2o1; 1.43
O=S(=O)(c1cccc2ncccc12)N1CC[C@@H]1CCN1CCN(c2cccc3sccc23)CC1; 0.95
O=S(=O)(c1cccc2ncccc12)N1CCC[C@@H]1CCN1CCC(c2noc3cc(F)ccc23)CC1; 2.08
O=S(=O)(c1cccc2ncccc12)N1CCC[C@H]1CCN1CCN(c2nsc3ccccc23)CC1; 1.40

What value of measured log10(Ki) is listed for O=c1[nH]c2c(N3CCN(CC[C@H]4CCCN4S(=O)(=O)c4cncc5ccccc45)CC3)cccc2o1 ? 1.56

====

assay: Ratio of drug level in brain to plasma in Wistar rat at 3 mg/kg, ip measured after 15 mins by LC-MS/MS analysis; format: ADME, organism-based; settings: read-out: BPR
Assay Endpoint: Kp at 0.25 h
// no unit string in output, number only

Known results for compounds:
O=S(=O)(c1cncc2ccccc12)N1CCC[C@@H]1CCN1CCN(c2cccc3sccc23)CC1; 0.47
O=S(=O)(c1cncc2ccccc12)N1CCC[C@H]1CCN1CCN(c2cccc3sccc23)CC1; 1.69
O=S(=O)(c1cccc2cnccc12)N1CCC[C@H]1CCN1CCN(c2nsc3ccccc23)CC1; 0.15

What does the data say about its Kp at 0.25 h? Entry: O=S(=O)(c1cncc2ccccc12)N1CCC[C@H]1CCN1CCN(c2nsc3ccccc23)CC1 0.59

Any idea what Kp at 0.25 h was measured for O=S(=O)(c1cccc2cnccc12)N1CCC[C@@H]1CCN1CCN(c2nsc3ccccc23)CC1 ? 0.28

Field request: Kp at 0.25 h | item: O=S(=O)(c1cncc2ccccc12)N1CCC[C@@H]1CCN1CCN(c2nsc3ccccc23)CC1 0.48

====

test: Toxicity in ip dosed Sprague-Dawley rat assessed as sedation pretreated for 60 mins followed by PCP addition measured for 30 mins starting 15 min after rat reintroduction to auto-tracks; format: organism-based; conditions: in vivo
Each entry below carries its recorded MTD at 0.5 h.
Field format: number, assumed mg/kg, no unit text.

Report MTD at 0.5 h for O=S(=O)(c1cncc2ccccc12)N1CCC[C@@H]1CCN1CCN(c2cccc3sccc23)CC1 please. 3

So what does the record say about MTD at 0.5 h for O=S(=O)(c1cncc2ccccc12)N1CCC[C@H]1CCN1CCN(c2cccc3sccc23)CC1 ? 3

Using the record for O=C(CCCN1CCC(O)(c2ccc(Cl)cc2)CC1)c1ccc(F)cc1 [HALOPERIDOL] , report its MTD at 0.5 h. 0.06
